System: 313798-341-R-J2-PDC spheroids, viability;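 further: spheroids exposed to compounds for seven days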
PROTOCOL SUMMARY: Anticancer human tumor 313798-341-R-J2-PDC patient-derived cervical squamous cell carcinoma cell line growth inhibition [PI3K]
CONDITIONS USED: curve of first compound; second compound 1 µM; spheroids with HUVEC and MSC
pIC50: −log10 of the molar value.
MEASURE NAME: pIC50

Consider the reported pIC50 for these compounds:
COMPOUND	ASSAYED TARGET	pIC50
CC(=O)c1c(C)c2cnc(Nc3ccc(N4CCNCC4)cn3)nc2n(C2CCCC2)c1=O + CC(Nc1ncnc2nc[nH]c12)c1cc2cccc(Cl)c2c(=O)n1-c1ccccc1	313798-341-R-J2-PDC spheroids, viability	< 7.00
Cn1ncnc1[C@H]1c2n[nH]c(=O)c3cc(F)cc(c23)N[C@@H]1c1ccc(F)cc1 + CC(Nc1ncnc2nc[nH]c12)c1cc2cccc(Cl)c2c(=O)n1-c1ccccc1	313798-341-R-J2-PDC spheroids, viability	< 7.00
CC(C)NCC(C(=O)N1CCN(c2ncnc3c2C(C)CC3O)CC1)c1ccc(Cl)cc1 (stereo not given) + COc1c(OCCCN2CCOCC2)ccc2c3n(c(=NC(=O)c4cnc(N)nc4)nc12)CCN3	313798-341-R-J2-PDC spheroids, viability	> 7.50
CCCS(=O)(=O)Nc1ccc(F)c(C(=O)c2c[nH]c3ncc(-c4ccc(Cl)cc4)cc23)c1F + CC(Nc1ccc2c(c1)OCCn1cc(N3C(=O)OCC3C(F)F)nc1-2)C(N)=O	313798-341-R-J2-PDC spheroids, viability	5.78

As a next step, examine the compound that follows.
Challenge: Query the reported pIC50 for 313798-341-R-J2-PDC spheroids, viability; item: C=CC(=O)N1CCN(c2nc(=O)n(-c3c(C)ccnc3C(C)C)c3nc(-c4c(O)cccc4F)c(F)cc23)C(C)C1 (stereo not given) + CC(Nc1ccc2c(c1)OCCn1cc(N3C(=O)OCC3C(F)F)nc1-2)C(N)=O
Response given: < 5.00
